Source listed as patent US20200157194A1.

Biological target: T1, human GREM1 (hGREM1-His; SEQ ID NO: 595) (human, UniProt O60565 25-184)
T1 construct: also called biotin-hGREM1-His; recombinant human GREM1 protein
T1 sequence: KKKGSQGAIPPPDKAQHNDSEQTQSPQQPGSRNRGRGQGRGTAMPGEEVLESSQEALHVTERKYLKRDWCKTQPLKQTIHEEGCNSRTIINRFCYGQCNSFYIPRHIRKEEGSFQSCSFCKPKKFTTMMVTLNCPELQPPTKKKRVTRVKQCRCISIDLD
Test: SPR, Biacore T200, 25 C, mAb captured, hGREM1-His injected;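 note: Heparin-supplemented HBS-EP+ used as running buffer, association and dissociation phases followed, Kd computed as koff divided by kon and half-life derived from koff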
Provide the recorded kon for the entries that follow.
The answer consists of two parts: a number and, after it, its unit.

>>> result("H4H6256P (antibody, human IgG4, V domains shown, H4H prefix = human IgG4 Fc) VH: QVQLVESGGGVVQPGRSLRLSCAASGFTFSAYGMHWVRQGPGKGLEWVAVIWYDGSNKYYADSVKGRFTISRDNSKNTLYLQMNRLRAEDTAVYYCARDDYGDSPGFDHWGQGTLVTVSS VL: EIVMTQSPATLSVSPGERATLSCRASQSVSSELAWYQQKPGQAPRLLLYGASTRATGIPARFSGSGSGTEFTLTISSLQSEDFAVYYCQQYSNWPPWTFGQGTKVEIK")
"90000 M⁻¹ s⁻¹"

Lab note: next binder to report on.
Prompt line: Input H2bM2783N (antibody, mouse IgG2, V domains shown, H2M prefix = mouse IgG2 Fc (here H2bM); also called H2M2783N) VH: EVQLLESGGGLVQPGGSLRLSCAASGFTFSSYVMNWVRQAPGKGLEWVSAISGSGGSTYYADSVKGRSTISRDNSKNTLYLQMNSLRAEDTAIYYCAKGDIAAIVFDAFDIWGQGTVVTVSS VL: DIQMTQSPSSLSASVGDRVTITCQASQDISSCLNWYQHKPGKAPKLLIYDASYLETGVPSRFSGSGSGTDFTFTISSLQPEDIATYYCQQYDNLPYTFGQGTKLEIK , output reported kon.
Response line: 202000 M⁻¹ s⁻¹
